System: L1210
Experiment: Concentration that causes a mitotic index (number of cells in mitosis divided by total cells) of cultured lymphoid leukemia L1210 cells.
Format: functional, Mus musculus
MEASUREMENT KIND: MI0.5 (µM)
Numbers only here, please. The scale is µM.

CCOC(=O)Nc1cc2c(ncn2/N=C/c2ccccc2)c(N)n1 : 0.61
CCOC(=O)Nc1cc(N/N=C/c2ccccc2)c2[nH]c(S)nc2n1 : 5.5
CCOC(=O)Nc1cc2[nH]c(-c3ccccc3)nc2c(N)n1 : 8
CCOC(=O)Nc1cc2c(nc(SCc3ccccc3)n2N)c(N)n1 : 1.6
CCOC(=O)Nc1cc2c(c(N)n1)N=C(c1ccccc1)CN2 : 0.0028

For this molecule ( CCOC(=O)Nc1cc(N/N=C/c2ccccc2)c2[nH]cnc2n1 ), measured MI0.5 is 0.94

For this molecule ( CCOC(=O)Nc1cc2c(nc(S)n2/N=C/c2ccccc2)c(N)n1 ), measured MI0.5 is 11

For this molecule ( CCOC(=O)Nc1cc(N/N=C/c2ccccc2)c(N)c(N)n1 ), measured MI0.5 is 15

* * *

Test system: L1210
Assay: The compound was tested for cell growth inhibitory activity against lymphoid leukemia L1210 cell line.
Assay type: functional, cell-based
Settings: Mus musculus
pIC50: −log10 of the molar value.
Decision: pIC50 compared against 6; not below it gives Y, below it gives N.

Recorded results for 10 compounds are shown here.
CCOC(=O)Nc1cc(N/N=C/c2ccccc2)c2[nH]c(SCc3ccccc3)nc2n1 : N
CCOC(=O)Nc1cc(N/N=C/c2ccccc2)c2[nH]cnc2n1 : Y
CCOC(=O)Nc1cc2c(ncn2/N=C/c2ccccc2)c(N)n1 : Y
CCOC(=O)Nc1cc(N/N=C/c2ccccc2)c(N)c(N)n1 : N
CCOC(=O)Nc1cc2c(nc(S)n2/N=C/c2ccccc2)c(N)n1 : Y
CCOC(=O)Nc1cc2c(nc(SCc3ccccc3)n2N)c(N)n1 : Y
CCOC(=O)Nc1cc(N(C)/N=C/c2ccccc2)c2nc[nH]c2n1 : N
CCOC(=O)Nc1cc2c(nc(SCc3ccccc3)n2/N=C/c2ccccc2)c(N)n1 : N
CCOC(=O)Nc1cc2c(nc(SCc3ccc(OC)cc3)n2N)c(N)n1 : Y
CCOC(=O)Nc1cc2c(nc(SCc3ccc4c(c3)OCO4)n2N)c(N)n1 : Y

Read the next record carefully.
Ask: Is reported pIC50 greater than or equal to 6 here: CCOC(=O)Nc1cc2c(nc(S)n2N)c(N)n1
Result: N
